// provenance: patent US9302999B2

Tested on: sedge, umbrella (small-flower umbrella sedge, Cyperus difformis)
Experiment: Test C flooded paddy test: sedge, umbrella
Type: in vivo
Conditions: Flood (flooded paddy test), 250 g ai/ha; visual rating after 13 to 15 days, scale 0 to 100 (0 no effect, 100 complete control)
Exercise: for every item that follows, state its recorded Plant response rating, Sedge, Umbrella.
Answers are plain numbers.

item_smiles=Cc1nn(-c2cncc(C(F)(F)F)c2)nc1C(=O)c1cccc(C(F)(F)F)c1 target_or_test_system="sedge, umbrella (small-flower umbrella sedge, Cyperus difformis)" quantitative_readout=0
item_smiles=Cc1nn(-c2ccc(F)cc2)nc1Oc1ccnc(OCC(F)(F)F)c1 target_or_test_system="sedge, umbrella (small-flower umbrella sedge, Cyperus difformis)" quantitative_readout=0
item_smiles=CCc1nn(-c2ccc(C(F)(F)F)cc2)nc1Cn1ccc(C(F)(F)F)n1 target_or_test_system="sedge, umbrella (small-flower umbrella sedge, Cyperus difformis)" quantitative_readout=75

Look at this compound and give its reported Plant response rating, Sedge, Umbrella. `Cc1nn(-c2cccc([N+](=O)[O-])c2)nc1C(=O)c1cccc(C(F)(F)F)c1` 0

---

Exercise: for every item that follows, state its recorded Plant response rating, Pigweed.
Test system: pigweed (Amaranthus retroflexus)
Assay: Test A pre-/postemergence: pigweed
Format: in vivo
Conditions: Preemergence, 125 g ai/ha; 0 to 100 scale (0 no effect, 100 complete control)
Numbers only.

item_smiles=Cc1nn(-c2ccc(C(F)(F)F)nc2)nc1C(=O)c1cccc(C(F)(F)F)c1 target_or_test_system="pigweed (Amaranthus retroflexus)" property="Plant response rating, Pigweed" quantitative_readout=30
item_smiles=Cc1nn(-c2ccnc(Cl)c2)nc1C(=O)c1cccc(C(F)(F)F)c1 target_or_test_system="pigweed (Amaranthus retroflexus)" property="Plant response rating, Pigweed" quantitative_readout=50
item_smiles=Cc1nn(-c2ccc([N+](=O)[O-])cc2)nc1C(=O)c1cccc(C(F)(F)F)c1 target_or_test_system="pigweed (Amaranthus retroflexus)" property="Plant response rating, Pigweed" quantitative_readout=20

For each of the items listed, what is its Plant response rating, Pigweed?
1. Cc1nn(-c2ccc(F)cc2)nc1Cn1ccc(C(F)(F)F)n1
2. Cc1nn(-c2ccccc2[N+](=O)[O-])nc1C(=O)c1cccc(C(F)(F)F)c1

1: 0; 2: 0

---

Exercise: for every item that follows, state its recorded Crabgrass, Large plant response rating.
Tested on: crabgrass, large (large crabgrass, Digitaria sanguinalis)
Assay: Test A pre-/postemergence: crabgrass, large
Type: in vivo
Conditions: Postemergence, 125 g ai/ha; 0 to 100 scale, 0 is no effect, 100 is complete control
Answers are plain numbers.

Solved cases below.
compound="Cc1nn(-c2ccc(C(F)(F)F)cc2)nc1Cc1cnn(CC(F)(F)F)c1 [Compound 51]" quantitative_readout=0
compound="Cc1nn(-c2cccc(Cl)c2)nc1C(=O)c1cccc(C(F)(F)F)c1 [Compound 76]" quantitative_readout=10
compound="Cc1nn(-c2ccc(Cl)cc2)nc1C(=O)c1cccc(C(F)(F)F)c1 [Compound 42]" quantitative_readout=10
compound="CCc1nn(-c2ccc(C(F)(F)F)cc2)nc1Cn1cc(C(F)(F)F)nc1Cl [Compound 122]" quantitative_readout=80
compound="CSc1ccc(-n2nc(C)c(C(=O)c3cccc(C(F)(F)F)c3)n2)cc1 [Compound 93]" quantitative_readout=10
compound="Cc1cc(Oc2nn(-c3ccc(F)cc3)nc2C)ccc1F [Compound 86]" quantitative_readout=0

For each of the items listed, what is its Crabgrass, Large plant response rating?
1. Cc1nn(-c2cccc([N+](=O)[O-])c2)nc1C(=O)c1cccc(C(F)(F)F)c1 [Compound 62]
2. Cc1nn(-c2ccc(F)cc2)nc1Oc1cccc(OC(F)(F)F)c1 [Compound 100]
3. Cc1nn(-c2ccc(C(F)(F)F)cc2)nc1Cn1ccc(C(F)(F)C(F)(F)F)n1 [Compound 12]

0
60
50
